Where these numbers come from: patent US20190100594A1

Recorded EC50 (read off the curve), one value per entry.
# SUBJECT_OF_TEST: T1, human GITR-CHO (human, UniProt Q9Y5U5)
# T1 construct: expressed on the surface of CHO cells, construct not described; also called human GITR expressed on the surface of CHO cells
# T1 sequence (looked up): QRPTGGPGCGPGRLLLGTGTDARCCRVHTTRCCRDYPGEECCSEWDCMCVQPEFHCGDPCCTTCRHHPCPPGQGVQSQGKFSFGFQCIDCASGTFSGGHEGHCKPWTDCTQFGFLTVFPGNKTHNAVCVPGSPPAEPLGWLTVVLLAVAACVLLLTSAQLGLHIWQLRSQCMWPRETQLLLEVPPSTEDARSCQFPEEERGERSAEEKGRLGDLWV
# TEST_PROTOCOL: flow cytometry on human GITR-CHO cells

Worked examples follow.
hzC06v1.2 (VHH) VHH: EVQLLESGGGEVQPGGSLRLSCAASGSVFSIDAMGWYRQAPGKGRELVSALSGISSATYAESVKGRFTISRDNAKNTLYLQMSSLRAEDTAVYYCYADVSTGWGRDAHGYWGQGTLVTV
1 to 2 nM
hzC06v3 (VHH) VHH: EVQLLESGGGEVQPGGSLRLSCAASGSVFSIDAMGWYRQAPGKQRELVAVLSGISSAKYAESVKGRFTISRDNAKNTLYLQMSSLRAEDTAVYYCYADVSTGWGRDAHGYWGQGTLVTV
1 to 2 nM

--- query ---
Form: binder = hzC06v2.4 (VHH) VHH: EVQLLESGGGEVQPGGSLRLSCAASGSVFSIDAMGWYRQAPGQQRELVAVLSGISSATYAESVKGRFTISRDNAKNTLYLQMSSLRAEDTAVYYCYADVSTGWGRDAHGYWGQGTLVTV ; EC50 (read off the curve) = 1 to 2 nM
